# System: MT-4 cells
# EXPERIMENTAL PROTOCOL: Test B: Cytotoxicity Assay (protocol of Test A, uninfected cells)
# Format: cell-based
# CONDITION DESCRIPTION: uninfected MT-4 cells, 5 days, CellTiter-Glo

>  <COMPOUND>
CC(=O)Oc1ccc(-c2ccc(F)c(C(N)=O)c2)c([C@H](Cc2cc(F)cc(F)c2)NC(=O)Cn2nc(C(F)F)c3c2C(F)(F)CCC3(F)F)n1 [Compound 20B]

>  <ASSAY TARGET>
MT-4 cells

>  <CC50>
> 53.2 µM

$$$$

====

# EXPERIMENTAL PROTOCOL: Test B: Cytotoxicity Assay (protocol of Test A, uninfected cells)
# Type: cell-based
# CONDITION DESCRIPTION: human, uninfected MT-4 cells, CellTiter-Glo

>  <COMPOUND>
CNc1cnc([C@H](Cc2cc(F)cc(F)c2)NC(=O)Cn2nc(C(F)F)c3c2C(F)(F)[C@@H]2C[C@H]32)c(-c2ccc(Cl)c3c(NS(C)(=O)=O)nn(C)c23)c1 [Compound 51]

>  <COMPARATIVE SIGN>
=

>  <CC50 at 5 days [µM]>
16.6

$$$$
>  <COMPOUND>
Cn1nc(NS(C)(=O)=O)c2cccc(-c3ccc(N4CC(N)CC4=O)nc3[C@H](Cc3cc(F)cc(F)c3)NC(=O)Cn3nc(C(F)(F)F)c4c3C(F)(F)[C@@H]3C[C@H]43)c21 (stereo partly shown) [Compound 43B]

>  <COMPARATIVE SIGN>
=

>  <CC50 at 5 days [µM]>
16.9

$$$$
>  <COMPOUND>
Cn1nc(NS(C)(=O)=O)c2cccc(-c3nc(N)cnc3C(Cc3cc(F)cc(F)c3)NC(=O)Cn3nc(C(F)F)c4c3C(F)(F)[C@@H]3C[C@H]43)c21 (stereo partly shown) [Compound 61]

>  <COMPARATIVE SIGN>
>

>  <CC50 at 5 days [µM]>
53.2

$$$$
>  <COMPOUND>
NC(=O)c1cc(-c2cc(N)cnc2[C@H](Cc2cc(F)cc(F)c2)NC(=O)Cn2nc(C(F)F)c3c2C(F)(F)CCC3(F)F)ccc1F [Compound 33]

>  <COMPARATIVE SIGN>
=

>  <CC50 at 5 days [µM]>
13.3

$$$$
>  <COMPOUND>
Cn1nc(NS(C)(=O)=O)c2c(Cl)ccc(-c3cc(N)cnc3[C@H](Cc3cc(F)cc(F)c3)NC(=O)Cn3nc(C(F)(F)F)c4c3C(F)(F)[C@@H]3C[C@H]43)c21 [Compound 52]

>  <COMPARATIVE SIGN>
=

>  <CC50 at 5 days [µM]>
21.5

$$$$
>  <COMPOUND>
Cc1nc([C@H](Cc2cc(F)cc(F)c2)NC(=O)Cn2nc(C(F)F)c3c2C(F)(F)[C@@H]2C[C@H]32)c(-c2cccc3c(NS(C)(=O)=O)nn(C)c23)cc1N [Compound 44]

>  <COMPARATIVE SIGN>
=

>  <CC50 at 5 days [µM]>
32

$$$$
>  <COMPOUND>
Cc1nc([C@H](Cc2cc(F)cc(F)c2)NC(=O)Cn2nc(C(F)(F)F)c3c2C(F)(F)[C@@H]2C[C@H]32)c(-c2cccc3c(NS(C)(=O)=O)nn(C)c23)cc1N [Compound 45]

>  <COMPARATIVE SIGN>
=

>  <CC50 at 5 days [µM]>
21.5

$$$$
>  <COMPOUND>
NC(=O)c1cc(-c2cc(N)cnc2[C@H](Cc2cc(F)cc(F)c2)NC(=O)Cn2nc(C(F)(F)F)c3c2C(F)(F)[C@@H]2C[C@H]32)ccc1F [Compound 31]

>  <COMPARATIVE SIGN>
=

>  <CC50 at 5 days [µM]>
19.5

$$$$
>  <COMPOUND>
CSc1cnc([C@H](Cc2cc(F)cc(F)c2)NC(=O)Cn2nc(C(F)F)c3c2C(F)(F)[C@@H]2C[C@H]32)c(-c2cccc3c(NS(C)(=O)=O)nn(C)c23)n1 [Compound 55G]

>  <COMPARATIVE SIGN>
=

>  <CC50 at 5 days [µM]>
22.1

$$$$
>  <COMPOUND>
NC(=O)c1cc(-c2cc(N3C(=O)c4ccccc4C3=O)cnc2[C@H](Cc2cc(F)cc(F)c2)NC(=O)Cn2nc(C(F)(F)F)c3c2C(F)(F)[C@@H]2C[C@H]32)ccc1F [Compound 30K]

>  <COMPARATIVE SIGN>
>

>  <CC50 at 5 days [µM]>
53.2

$$$$
>  <COMPOUND>
CC(=O)Nc1cnc([C@H](Cc2cc(F)cc(F)c2)NC(=O)Cn2nc(C(F)(F)F)c3c2C(F)(F)[C@@H]2C[C@H]32)c(-c2cccc3c(N(C(C)=O)S(C)(=O)=O)nn(C)c23)c1 [Compound 38B]

>  <COMPARATIVE SIGN>
=

>  <CC50 at 5 days [µM]>
40.8

$$$$
>  <COMPOUND>
CN(C)c1cnc([C@H](Cc2cc(F)cc(F)c2)NC(=O)Cn2nc(C(F)F)c3c2C(F)(F)[C@@H]2C[C@H]32)c(-c2ccc(Cl)c3c(NS(C)(=O)=O)nn(C)c23)c1 [Compound 50]

>  <COMPARATIVE SIGN>
=

>  <CC50 at 5 days [µM]>
34.2

$$$$
>  <COMPOUND>
Cn1nc(NS(C)(=O)=O)c2c(Cl)ccc(-c3ccc(NCCO)nc3[C@H](Cc3cc(F)cc(F)c3)NC(=O)Cn3nc(C(F)(F)F)c4c3C(F)(F)[C@@H]3C[C@H]43)c21 [Compound 56]

>  <COMPARATIVE SIGN>
=

>  <CC50 at 5 days [µM]>
24.3

$$$$
>  <COMPOUND>
CN(CCO)c1ccc(-c2ccc(Cl)c3c(NS(C)(=O)=O)nn(C)c23)c([C@H](Cc2cc(F)cc(F)c2)NC(=O)Cn2nc(C(F)F)c3c2C(F)(F)[C@@H]2C[C@H]32)n1 [Compound 57G]

>  <COMPARATIVE SIGN>
=

>  <CC50 at 5 days [µM]>
29.5

$$$$
>  <COMPOUND>
Cn1nc(NS(C)(=O)=O)c2cccc(-c3cc(N)c(C#N)nc3[C@H](Cc3cc(F)cc(F)c3)NC(=O)Cn3nc(C(F)(F)F)c4c3C(F)(F)[C@@H]3C[C@H]43)c21 [Compound 46F]

>  <COMPARATIVE SIGN>
=

>  <CC50 at 5 days [µM]>
12.5

$$$$
>  <COMPOUND>
CC(=O)Nc1cnc([C@H](Cc2cc(F)cc(F)c2)NC(=O)Cn2nc(C(F)(F)F)c3c2C(F)(F)[C@@H]2C[C@H]32)c(-c2cccc3c(NS(C)(=O)=O)nn(C)c23)c1 [Compound 39]

>  <COMPARATIVE SIGN>
=

>  <CC50 at 5 days [µM]>
29.6

$$$$
>  <COMPOUND>
Cc1c(-c2cc(NS(C)(=O)=O)cnc2[C@H](Cc2cc(F)cc(F)c2)NC(=O)Cn2nc(C(F)(F)F)c3c2C(F)(F)[C@@H]2C[C@H]32)ccc2n[nH]c(=O)n12 [Compound 41E]

>  <COMPARATIVE SIGN>
>

>  <CC50 at 5 days [µM]>
50

$$$$
>  <COMPOUND>
Cn1nc(NS(C)(=O)=O)c2c(Cl)ccc(-c3cc(N)cnc3[C@H](Cc3cc(F)cc(F)c3)NC(=O)Cn3nc(C(F)F)c4c3C(F)(F)[C@@H]3C[C@H]43)c21 [Compound 49C]

>  <COMPARATIVE SIGN>
=

>  <CC50 at 5 days [µM]>
28.1

$$$$
>  <COMPOUND>
Cn1nc(NS(C)(=O)=O)c2cccc(-c3cnc(N4CC(C)(O)C4)nc3[C@H](Cc3cc(F)cc(F)c3)NC(=O)Cn3nc(C(F)(F)F)c4c3C(F)(F)[C@@H]3C[C@H]43)c21 [Compound 36C]

>  <COMPARATIVE SIGN>
=

>  <CC50 at 5 days [µM]>
32.2

$$$$
>  <COMPOUND>
Cc1c(-c2cc(NC(=O)C(F)(F)F)cnc2[C@H](Cc2cc(F)cc(F)c2)NC(=O)Cn2nc(C(F)(F)F)c3c2C(F)(F)[C@@H]2C[C@H]32)ccc2n[nH]c(=O)n12 [Compound 40]

>  <COMPARATIVE SIGN>
=

>  <CC50 at 5 days [µM]>
24.1

$$$$
>  <COMPOUND>
Cc1nc([C@H](Cc2cc(F)cc(F)c2)NC(=O)Cn2nc(C(F)F)c3c2C(F)(F)[C@@H]2C[C@H]32)c(-c2ccc(Cl)c3c(NS(C)(=O)=O)nn(C)c23)cc1N [Compound 47C]

>  <COMPARATIVE SIGN>
=

>  <CC50 at 5 days [µM]>
18.1

$$$$
>  <COMPOUND>
CN1CCN(c2ccc(-c3ccc(Cl)c4c(NS(C)(=O)=O)nn(C)c34)c([C@H](Cc3cc(F)cc(F)c3)NC(=O)Cn3nc(C(F)(F)F)c4c3C(F)(F)[C@@H]3C[C@H]43)n2)CC1 [Compound 60C]

>  <COMPARATIVE SIGN>
=

>  <CC50 at 5 days [µM]>
9.11

$$$$

These data points were gathered from patent US9050344B2.
